Assay: LC-MS/MS quantification of zanubrutinib in time-matched plasma and CSF samples of patients
Format: in vivo, human
Conditions: human, CSF, oral, 160 mg, case 1, 12 h after the last dose; read-out: Trough CSF concentration
READOUT_LABEL: concentration at 12 h (ng/mL)
Unit ng/mL implied. Number only.

## Input Given C=CC(=O)N1CCC([C@@H]2CCNc3c(C(N)=O)c(-c4ccc(Oc5ccccc5)cc4)nn32)CC1 [Zanubrutinib] , state its recorded concentration at 12 h.
## Output 0.267

* * *

Experiment: LC-MS/MS quantification of zanubrutinib in time-matched plasma and CSF samples of patients
Type: in vivo, human
Settings: human, CSF/plasma, oral, 160 mg, corrected for 94% protein binding, entire series, 23 samples; read-out: Corrected CSF/plasma ratio
READOUT_LABEL: Kp

## Input Given `C=CC(=O)N1CCC([C@@H]2CCNc3c(C(N)=O)c(-c4ccc(Oc5ccccc5)cc4)nn32)CC1` , state its recorded Kp.
## Output ~0.4

* * *

Test: LC-MS/MS quantification of zanubrutinib in time-matched plasma and CSF samples of patients
Assay type: in vivo, human
Settings: human, plasma, oral, 160 mg, 2 h after administration, 10 samples; read-out: Mean plasma concentration
READOUT_LABEL: concentration at 2 h (ng/mL)
Unit ng/mL implied. Number only.

## Input Given C=CC(=O)N1CCC([C@@H]2CCNc3c(C(N)=O)c(-c4ccc(Oc5ccccc5)cc4)nn32)CC1 [Zanubrutinib] , state its recorded concentration at 2 h.
## Output 183

* * *

Assay: LC-MS/MS quantification of zanubrutinib in time-matched plasma and CSF samples of patients
Assay type: in vivo, human
Details: human, CSF, oral, 160 mg, 2 h after administration, 10 samples; read-out: Mean CSF concentration
READOUT_LABEL: concentration at 2 h (ng/mL)
Unit ng/mL implied. Number only.

## Input Given `C=CC(=O)N1CCC([C@@H]2CCNc3c(C(N)=O)c(-c4ccc(Oc5ccccc5)cc4)nn32)CC1` , state its recorded concentration at 2 h.
## Output 4.12

* * *

Experiment: LC-MS/MS quantification of zanubrutinib in time-matched plasma and CSF samples of patients
Type: in vivo, human
Conditions: human, CSF/plasma, oral, 160 mg, 2 h after administration, 10 samples; read-out: Corrected CSF/plasma ratio
READOUT_LABEL: Kp at 2 h

## Input Given `C=CC(=O)N1CCC([C@@H]2CCNc3c(C(N)=O)c(-c4ccc(Oc5ccccc5)cc4)nn32)CC1` , state its recorded Kp at 2 h.
## Output 0.412

* * *

Test: LC-MS/MS quantification of zanubrutinib in time-matched plasma and CSF samples of patients
Format: in vivo, human
Settings: human, plasma, oral, 160 mg, 3 h after administration, 13 samples; read-out: Mean plasma concentration
READOUT_LABEL: concentration at 3 h
# include the unit after the value

## Input Given `C=CC(=O)N1CCC([C@@H]2CCNc3c(C(N)=O)c(-c4ccc(Oc5ccccc5)cc4)nn32)CC1` , state its recorded concentration at 3 h.
## Output 126 ng/mL

* * *

Assay: LC-MS/MS quantification of zanubrutinib in time-matched plasma and CSF samples of patients
Format: in vivo, human
Conditions: human, CSF, oral, 160 mg, case 3, 12 h after the last dose; read-out: Trough CSF concentration
READOUT_LABEL: concentration at 12 h (ng/mL)
Unit ng/mL implied. Number only.

## Input Given `C=CC(=O)N1CCC([C@@H]2CCNc3c(C(N)=O)c(-c4ccc(Oc5ccccc5)cc4)nn32)CC1` , state its recorded concentration at 12 h.
## Output 5.02
